System: human CYP 3A4 (Homo sapiens)
Sequence (P08684 whole entry): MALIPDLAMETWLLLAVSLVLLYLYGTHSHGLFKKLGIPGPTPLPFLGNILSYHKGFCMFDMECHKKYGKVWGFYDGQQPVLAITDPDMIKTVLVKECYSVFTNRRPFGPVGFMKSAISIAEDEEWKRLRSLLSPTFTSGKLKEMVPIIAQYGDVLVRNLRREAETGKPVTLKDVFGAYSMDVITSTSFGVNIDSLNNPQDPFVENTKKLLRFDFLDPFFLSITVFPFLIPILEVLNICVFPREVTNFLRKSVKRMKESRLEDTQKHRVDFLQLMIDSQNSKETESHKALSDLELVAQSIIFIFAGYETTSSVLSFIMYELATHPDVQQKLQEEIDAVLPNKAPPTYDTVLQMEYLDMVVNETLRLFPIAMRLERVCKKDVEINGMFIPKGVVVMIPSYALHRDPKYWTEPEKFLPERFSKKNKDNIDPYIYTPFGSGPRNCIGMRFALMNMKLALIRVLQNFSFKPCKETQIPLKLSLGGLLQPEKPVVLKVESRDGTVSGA
Measurement Type: IC50

Prompt line: Form field: IC50 recorded for CC1=C(C#N)[C@@H](c2ccc(C#N)cc2S(C)(=N)=O)N(C)C(=O)N1c1cccc(C(F)(F)F)c1 (stereo partly shown) with human CYP 3A4 (Homo sapiens) (enter value)
Response line: > 50 µM

----------
Protocol: Pharmacokinetic studies in rats
Condition: rat, in vivo, iv, 0.3 mg kg^−1
Measurement Type: clearance (mL/min/kg)
Quick reminder: number only, in mL/min/kg, skip the unit.

Please review the entries below; each comes with its answer.
Compound Smiles	Display Unit	clearance
CC(=O)C1=C(C)N(c2cccc(C(F)(F)F)c2)C(=O)N[C@@H]1c1ccc(C#N)nc1	mL/min/kg	33.3
CC1=C(C#N)[C@@H](c2ccc(C#N)cc2S(C)(=O)=O)N(C)C(=O)N1c1cccc(C(F)(F)F)c1	mL/min/kg	8.33

Query molecule follows.
Prompt line: Item under review: `CC1=C(C(=O)OCCO)[C@@H](c2ccc(C#N)cc2)NC(=O)N1c1cccc(C(F)(F)F)c1` . Reported clearance?
Response line: 35
